- Test system: HT29-MTX (E12) cells
- protocolSummary: Transepithelial transport of GH compounds across E12 cell monolayers (Papp)
- Format: in vitro ADME
- runParameters: GH-A2, same procedure: 0.5 mM FA-aa, transport buffer pH 7.4
Consider the following compounds and their measured Fold increase (Papp of GH A2 + FA-aa relative to GH A2 alone) readings.
I only need the number, in fold, no unit after it.

Some compounds with known Fold increase (Papp of GH A2 + FA-aa relative to GH A2 alone) results, for comparison:
[[record]]
compound = "CCCCCCCCCCCC(=O)NCC(=O)O"
unitsymbol = "fold"
reportedmeasurement = 3.4

[[record]]
compound = "CCCCCCCCCCCCCCCC(=O)NC(CC(=O)O)C(=O)O (stereo not shown)"
unitsymbol = "fold"
reportedmeasurement = 1.8

[[record]]
compound = "CCCCCCCCCC(=O)N(C)CC(=O)O"
unitsymbol = "fold"
reportedmeasurement = 0.7


Now consider a different compound.
[Q] Quick check: Fold increase (Papp of GH A2 + FA-aa relative to GH A2 alone) of CCCCCCCCCCCCCCCC(=O)NC(CCC(=O)O)C(=O)O (stereo not shown) ?
[A] 4.1
